Test: NCI Yeast Anticancer Drug Screen. Data for the sgs1 mgt1 strain (AID 161);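 note: 0% = growth of cultures given vehicle only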
Settings: S. cerevisiae sgs1 mgt1 strain, at 50.0 µM, active compounds read high
About 79,000 compounds went through this panel and 15% of them were active in at least one assay; those are over-represented in the sample as a whole.
ASSAY READOUT: growth inhibition (%)

1. CCC(=O)O[C@@H]1C2C(OC(C)=O)C34COC(C)([C@@H]3C3C(C[C@]3(C)OC(C)=O)[C@@H](OC(=O)c3ccccc3)C4=O)[C@H](OC(C)=O)[C@@]2(OC(C)=O)C[C@@H]1C (stereo not given in full): 4.85
2. O=C(O)/C(=C\c1cc2c(cc1[N+](=O)[O-])OCO2)c1ccccc1: 6.8
3. CC1=CC(=O)c2cc(C)ccc2C1=O: -8.35
4. O=C1OC(c2cccc(Cl)c2)=N/C1=C\c1ccc(O)cc1: 15.6
5. N#Cc1[nH]cnc1O: -11.4

====

growth inhibition overview
Test: NCI Yeast Anticancer Drug Screen. Data for the cln2 rad14 strain (AID 165);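 note: 0% = growth equal to vehicle treated cultures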
Settings: S. cerevisiae cln2 rad14 strain, at 50.0 µM, active compounds read high
This is part of a sample that, as a whole, favours compounds with a hit. Of some 79,000 tested, about 15% had one in any assay.
ASSAY READOUT: growth inhibition (%)

1. O=C(CN=C(CN(c1ccccc1)c1ccccc1)Oc1c(Cl)cc(Cl)cc1Cl)N1c2ccccc2Sc2ccccc21: -36.2
2. COC(=O)c1ccc(C)[nH]1: 26.6
3. CC(C)(O)C1CCC/C1=N/NC(N)=O (stereo unspecified): 3.55
4. CS(=O)(=O)OCCCSCCSCCCOS(C)(=O)=O: -4.8
5. O=C(O)C(C(=O)O)C(c1cccc([N+](=O)[O-])c1)C(c1ccccc1)[N+](=O)[O-] (stereo unspecified): 12.2
6. CC(C)(C)OC(=O)CC(O)c1ccccc1 (stereo unspecified): -2.45
7. COc1ccc(C(=O)Nc2ccccc2)cc1: 6.25
8. O=C(c1ccccc1)C1(c2ccccc2)CCCCC1: -10.6
9. Cc1cc(O)c([N+](=O)[O-])cc1C: -1.75
10. N#C/C(=C\c1ccccn1)c1ccc(Cl)cc1: -17.4
11. N#CCCS(=O)(=O)O: 1.95
12. COC(=O)C1CCCCC1C(=O)OC (stereo unspecified): -16.6
13. CC1(C)c2ccccc2C(=O)c2ccccc21: -4.6
14. CC(=O)OC1CC2CC3C(C)CCC3(C2(C)C)C1(C)O (stereo unspecified): 0.7
15. CN1CC(=O)N(C(=O)c2ccccc2)C1=N: -17.9
16. N/N=C(/C(=O)Nc1cccc(Cl)c1)C(C(=O)c1ccc(O)cc1O)C1OC(=O)c2ccccc21 (stereo unspecified): 0.85
17. CCOC(=O)/C=C(\N)c1ccccc1: -43.8
18. CCC1=NCCO1: 4
19. N#CC(c1ccc(N)cc1)c1ccc(F)cc1 (stereo unspecified): 27.2
20. CC1=N/C(=C\c2cccs2)C(=O)O1: 20.5
21. CC(C)C1CCC(O)CC1 (stereo unspecified): -32.2
22. COc1ccc2c(N=[N+]=[N-])cc(C)nc2c1: -57.5
23. COc1cccc(CCNc2ccncc2N)c1: -52.2
24. CCOC(=O)C(C(C)=O)C(c1ccc(OCc2ccccc2)c(C)c1)C(C(C)=O)C(=O)OCC (stereo unspecified): 27.1
25. OC(c1ccoc1)c1cc2ccccc2s1 (stereo unspecified): 22.2
26. COc1cc2c(cc1O)C(=O)CCC(C(=O)O)=C2: -14.8
27. COC(=O)C1C(C(=O)OC)C(C(=O)OC)C1C(=O)OC (stereo unspecified): 9.5
28. CS(=O)(=O)OC12CC3CC(CC(C3)C1)C2: -26.5
29. COc1ccc(C(CCl)(CCl)c2ccc(OC)c(C)c2)cc1C: -4.05
30. CC1(C)CC[C@]2(C(=O)O)CC[C@]3(C)C(=CC[C@@H]4[C@@]5(C)CC[C@@H]6OC(C)(C)OC[C@@]6(C)[C@@H]5CC[C@]43C)[C@H]2C1: -5.1
31. COC(=O)[C@H](Cc1c[nH]c2ccccc12)NP(=O)(O)OCC1C=CC(n2cc(C)c(=O)[nH]c2=O)O1 (stereo partly specified): 6.8
32. CC(C)(C)c1ccc(OS(=O)(=O)c2ccc(Cl)c(Cl)c2)cc1: 31.6
33. CCOc1nc(SCC)nc2c1cnn2-c1ccccc1: -15.8
34. CC1OC(n2ccc3ccc([N+](=O)[O-])cc32)C(O)C(O)C1O (stereo unspecified): -12.2
35. N#C/C=C\c1ccc(F)cc1: 3.35
36. Cn1ncc2c(Nc3cc(Cl)ccc3Cl)ncnc21: -52.8
37. CCC(C)C1CCCCC1 (stereo unspecified): 3.85
38. C=C(C)c1ccc(F)cc1: 4.2
39. CCCCCCCCN(CCCCCCCC)CC(O)c1cc(-c2ccccc2)nc2c(-c3ccccc3)cccc12 (stereo unspecified): 51.1
40. COc1ccc(C2C(=O)C(Cl)N2Nc2nc(C)cc(=O)[nH]2)cc1OC (stereo unspecified): -2.3
41. CCN(CC)CCC(=O)O: 5.95
42. C=CCSc1ncnc2c1c(C#N)cn2C1OC(CO)C(O)C1O (stereo unspecified): 17.5
43. O=C(Cl)c1ccc2ccccc2c1: -43
44. O=S(=O)(c1ccccc1)c1ccccn1: 6.2
45. CN(C)Cc1cc(C(=O)O)ccc1O: -29
46. O=C(COc1ccccc1)Nc1ccc(C(=O)O)cc1: 1.85
47. CC(=O)Nc1ccc(N(C)C)cc1Cl: -17.1
48. Cn1c(=O)c2nc3sc4c(n3c2n(C)c1=O)C(=O)c1ccccc1C4=O: -11.2
49. CC1=NN(C(=O)c2ccc(Cl)cc2)C(=O)/C1=C/c1ccc(Cl)cc1: -19.6
50. CCOc1ccc(NC(=S)N/C=C(/C#N)C(N)=O)cc1: -14.2
51. NC(=O)c1ccc[n+](CCCCCCCCCCC(=O)[O-])c1: -15
